Attribution: ChEMBL document CHEMBL4296182

# Test system: Staphylococcus aureus
# experimental.details: Antibacterial activity against Staphylococcus aureus MRSA ATCC 43300 (CO-ADD:GP_020); MIC in CAMBH media using NBS plates, by Resazurin F(560/590)
# Type: functional
# conditions.used: Concentration 20 uM, ASSAY_TEST Inhibition of Bacterial Growth, detection method Resazurin, Fluorescence (ex560/em590), MEDIA CAMHB, plate type 384well, CORNING #3640, time 18 hr
Entries and their Inhibition

[
  {
    "compound": "CCOC(=O)c1ccc2nc(-c3ccc(S(=O)(=O)F)cc3)cc(O)c2c1",
    "Inhibition (%)": 10.74
  },
  {
    "compound": "CC(=O)OC1CCC2(C)C(CCC3C2CC(=O)C2(C)C3CC(N3CC3)C2C(C)=O)C1 (centres undefined)",
    "Inhibition (%)": -6.66
  },
  {
    "compound": "N#CC12CNCC1CN=N2 (centres undefined)",
    "Inhibition (%)": 10.47
  },
  {
    "compound": "O=C1N[C@H]2[C@H](O)[C@H](O)[C@@H](O)[C@H](O)[C@@H]2c2cc3c(c(O)c21)OCO3",
    "Inhibition (%)": 12.72
  },
  {
    "compound": "O=C1C[C@@H]2OCC=C3C[N+]4([O-])CC[C@]56c7ccccc7N1[C@H]5[C@H]2[C@H]3C[C@@H]64 (some centres undefined)",
    "Inhibition (%)": -3.57
  },
  {
    "compound": "CC(=O)Nc1ccc([As](=O)(O)c2ccc([N+](=O)[O-])cc2)cc1",
    "Inhibition (%)": 12.11
  },
  {
    "compound": "COC(=O)c1nc(-c2ccc3c(n2)C(=O)C(N)=C(OC)C3=O)c(N)c(-c2ccc(OC)c(OC)c2O)c1C",
    "Inhibition (%)": -0.84
  },
  {
    "compound": "O=[As](O)(O)c1ccc(/N=N/c2ccc(O)cc2)cc1",
    "Inhibition (%)": -11.42
  },
  {
    "compound": "CCC(CO)NC(=O)C1C=C2c3cccc4[nH]cc(c34)CC2N(C)C1 (centres undefined)",
    "Inhibition (%)": 1.02
  },
  {
    "compound": "CC(=O)O.CCC(N)Cc1c[nH]c2ccccc12 (centres undefined) [ETRYPTAMINE ACETATE]",
    "Inhibition (%)": 10.71
  },
  {
    "compound": "Nc1nc(N)c2cnnn2n1",
    "Inhibition (%)": -6.46
  },
  {
    "compound": "COc1cc2c(cc1O)CC1c3c(cc(O)c(OC)c3-2)CCN1C (centres undefined)",
    "Inhibition (%)": 8.78
  },
  {
    "compound": "O=S(=O)(F)c1ccc2nc(-c3cccc(Sc4ccccc4)c3)cc(Cl)c2c1",
    "Inhibition (%)": 0.33
  },
  {
    "compound": "COc1ccc2c(c1)NP(=S)(Oc1ccccc1)N2 (centres undefined)",
    "Inhibition (%)": -0.02
  }
]

* * *

# Tested on: Klebsiella pneumoniae
# conditions.used: Concentration 20 uM; ASSAY_TEST Inhibition of Bacterial Growth; detection method Absorption (OD600); MEDIA CAMHB; plate type 384well; NBS; CORNING #3640; time 18 hr
# Description: Antibacterial activity against Klebsiella pneumoniae MDR ATCC 70063 (CO-ADD:GN_003); MIC in CAMBH media using NBS plates, by OD(600)
Measured potencies and affinities stand elsewhere.
Inhibition values by entry
attribute.measured: Inhibition (%)

[
  {
    "molecule": "O=C1/C(=C\\c2ccccc2)C2OCC=C3CN4CCC56c7ccccc7N1C5C2C3CC46 (stereo unspecified)",
    "endpoint.value": 12.64
  },
  {
    "molecule": "Cc1nccc2c1[nH]c1cc(O)ccc12",
    "endpoint.value": 20.45
  },
  {
    "molecule": "Cn1cc(C=O)c2nccnc21",
    "endpoint.value": 3.85
  },
  {
    "molecule": "CCCCOP(=O)(OCCCC)C1(C)CC(=O)CC(C)(C)C1 (stereo unspecified)",
    "endpoint.value": 23.67
  },
  {
    "molecule": "C[C@H]1CC[C@H]2NCCN[C@H]2C1",
    "endpoint.value": 13.98
  },
  {
    "molecule": "COc1ccc2c(c1)C13CCN(C)C(C2)C1CCC1(C3)OCCO1 (stereo unspecified)",
    "endpoint.value": 10.59
  }
]

* * *

# System: Acinetobacter baumannii
# experimental.details: Antibacterial activity against Acinetobacter baumannii ATCC 19606 (CO-ADD:GN_034); MIC in CAMBH media using NBS plates, by Resazurin F(560/590)
# Type: functional
# conditions.used: Concentration 20 uM, ASSAY_TEST Inhibition of Bacterial Growth, detection method Resazurin, Fluorescence (ex560/em590), MEDIA CAMHB, plate type 384well, CORNING #3640, time 18 hr
// values below are reported Inhibition
attribute.measured: Inhibition

[
  {
    "compound": "N=C(N)N/N=C/c1c(Cl)cccc1Cl",
    "experimental.target": "Acinetobacter baumannii",
    "attribute.measured": "Inhibition",
    "endpoint.value": "-12.8%"
  },
  {
    "compound": "COc1ccc(C2=CC(c3ccc(OC)c(OC)c3)c3c(c4ccccc4oc3=O)O2)cc1OC (configuration not stated)",
    "experimental.target": "Acinetobacter baumannii",
    "attribute.measured": "Inhibition",
    "endpoint.value": "-10.24%"
  },
  {
    "compound": "Cc1c(CCN)ccc2c1[nH]c1ccccc12",
    "experimental.target": "Acinetobacter baumannii",
    "attribute.measured": "Inhibition",
    "endpoint.value": "-3.14%"
  },
  {
    "compound": "CC(C)NC1C2CCC(CC2)C1(O)c1ccc(Cl)c(Cl)c1.CS(=O)(=O)O (configuration not stated)",
    "experimental.target": "Acinetobacter baumannii",
    "attribute.measured": "Inhibition",
    "endpoint.value": "-0.12%"
  },
  {
    "compound": "CSc1nc(=O)c(/N=N/c2ccc([As](=O)(O)O)cc2)c(N)[nH]1",
    "experimental.target": "Acinetobacter baumannii",
    "attribute.measured": "Inhibition",
    "endpoint.value": "10.89%"
  },
  {
    "compound": "O=c1nc(C(F)(F)C(F)(F)C(F)(F)F)[nH]o1",
    "experimental.target": "Acinetobacter baumannii",
    "attribute.measured": "Inhibition",
    "endpoint.value": "8.1%"
  },
  {
    "compound": "O=S(=O)(F)c1ccc2nc(-c3cccc(Sc4ccccc4)c3)cc(Cl)c2c1",
    "experimental.target": "Acinetobacter baumannii",
    "attribute.measured": "Inhibition",
    "endpoint.value": "-14.47%"
  }
]

* * *

# System: Cryptococcus neoformans
# conditions.used: Concentration 20 uM; ASSAY_TEST Inhibition of Fungal Growth; detection method Resazurin; Absorption (OD600-OD570); plate type 384well; NBS; CORNING #3640
# Description: Antifungal activity against Cryptococcus neoformans H99 ATCC 208821 (CO-ADD:FG_002); MIC in YNB media using NBS plates, by Resazurin OD(600-570)
Measured potencies and affinities stand elsewhere.
// Inhibition lookup, one value per entry

[
  {
    "molecule": "COc1cc(OC)cc(C2(C#N)CCN(C)CC2)c1",
    "Inhibition": "25.01%"
  },
  {
    "molecule": "Cc1ccc2cc3c(ccc4ccccc43)c3c2c1CC3 [3-METHYLCHOLANTHRENE]",
    "Inhibition": "3.35%"
  },
  {
    "molecule": "CCN1CCc2ccccc2C1",
    "Inhibition": "-10.24%"
  },
  {
    "molecule": "CN(C)P(=O)(N(C)C)N1CC1",
    "Inhibition": "-11.15%"
  },
  {
    "molecule": "CN1CCc2cc3c(cc2C1)OCO3",
    "Inhibition": "-8.47%"
  },
  {
    "molecule": "ClC1=C(Cl)C(Cl)=C(Cl)C1=C/C=C/c1ccccc1",
    "Inhibition": "2.88%"
  },
  {
    "molecule": "CCCC(=O)N(C)C1=Nc2ccc(Cl)cc2C(c2ccccc2)=[N+]([O-])C1",
    "Inhibition": "-4.22%"
  },
  {
    "molecule": "CN1C(=O)CC[C@@]2(C)C1=CC[C@@H]1[C@@H]2CC[C@@]2(C)[C@H]1CC[C@]2(C)O",
    "Inhibition": "-18.95%"
  },
  {
    "molecule": "CC(=O)Nc1ccc([As](=O)(O)c2ccc([N+](=O)[O-])cc2)cc1",
    "Inhibition": "0.38%"
  },
  {
    "molecule": "O=c1nc(C(F)(F)C(F)(F)C(F)(F)F)[nH]o1",
    "Inhibition": "-2.86%"
  },
  {
    "molecule": "CN(C)C1CCc2[nH]c3c(F)cc(F)cc3c2C1 (centres undefined) [FLUCINDOLE]",
    "Inhibition": "-13.31%"
  },
  {
    "molecule": "Cc1c(C(=O)c2ccccc2)c2ccccc2n1C",
    "Inhibition": "-16.28%"
  },
  {
    "molecule": "CNC(=O)Oc1ccc(N(C)C)cc1C(C)C",
    "Inhibition": "-12.66%"
  },
  {
    "molecule": "O=C(NC(=O)c1c(F)cccc1F)Nc1cc(Cl)c(F)c(Cl)c1F [TEFLUBENZURON]",
    "Inhibition": "-2.13%"
  },
  {
    "molecule": "Cc1c(CCN)ccc2c1[nH]c1ccccc12",
    "Inhibition": "-5.14%"
  },
  {
    "molecule": "O=C1CCCN1CC#CCN1CCCC1 [OXOTREMORINE]",
    "Inhibition": "-12.14%"
  },
  {
    "molecule": "c1ccc(C2NCCc3[nH]cnc32)cc1 (centres undefined)",
    "Inhibition": "13.69%"
  },
  {
    "molecule": "O=C(CF)N(O)c1ccc(/C=C/c2ccccc2)cc1",
    "Inhibition": "-7.92%"
  },
  {
    "molecule": "CCC1CCC(C)N(N=O)C1 (centres undefined)",
    "Inhibition": "-1.16%"
  },
  {
    "molecule": "CC(C)NC1C2CCC(CC2)C1(O)c1ccc(Cl)c(Cl)c1.CS(=O)(=O)O (centres undefined)",
    "Inhibition": "-1.76%"
  },
  {
    "molecule": "CCN1CC2C3CCC(C)(O3)C2C1 (centres undefined)",
    "Inhibition": "-3.82%"
  },
  {
    "molecule": "CN1C2c3ccccc3C3C4c5ccccc5C(C31)C(C2[N+](=O)[O-])N4C (centres undefined)",
    "Inhibition": "-16.47%"
  },
  {
    "molecule": "CN1CCN(c2nc(N)cc(O)n2)CC1",
    "Inhibition": "-4.09%"
  },
  {
    "molecule": "Cc1ccc2c(c1)Oc1ccccc1N=C2",
    "Inhibition": "-3.65%"
  }
]
